biological target: Kras and SOS1 (biotin-tagged human Kras loaded with GDP, His-tagged human SOS1) (Homo sapiens, UniProt P01116, G12D); construct: made in house; host or cells: E. coli (stated for Kras only); experiment: Protein-protein interaction inhibition between Kras and SOS1 (KrasGl2D-SOS PPI) using AlphaScreen; type: binding; details: AlphaScreen; biotin-tagged human Kras loaded with GDP, His-tagged human SOS1; read-out: KRAS G12D-SOS PPI IC50
Sequence (P01116 1-188 isoform P01116-2 G12D): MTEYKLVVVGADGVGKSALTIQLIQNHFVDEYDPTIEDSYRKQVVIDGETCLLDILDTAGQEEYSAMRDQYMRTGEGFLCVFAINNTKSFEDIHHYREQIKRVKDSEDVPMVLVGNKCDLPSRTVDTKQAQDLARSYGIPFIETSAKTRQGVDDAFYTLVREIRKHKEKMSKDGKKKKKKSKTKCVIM
Positions of bridges follow the written chain, without caps; N, C: chain ends. Non-standard residues stand in square brackets, D forms with d. Residues, ends and D or L forms follow the SMILES beside them. *: point of attachment. hPhe(3-Cl-4-CF3) = N[C@@H](CCc1ccc(C(F)(F)F)c(Cl)c1)C(=O)O; Pro(trans-4-Ph) = O=C(O)[C@@H]1C[C@@H](c2ccccc2)CN1; hPhe(4-CF3) = N[C@@H](CCc1ccc(C(F)(F)F)cc1)C(=O)O; Phe(3,5-Cl2) = N[C@@H](Cc1cc(Cl)cc(Cl)c1)C(=O)O; Thiomorpholino(1,1-dioxo) = O=S1(=O)CCN(*)CC1; NMePhe(4-Cl) = CN[C@@H](Cc1ccc(Cl)cc1)C(=O)O; NMePhe(2-OMe) = CN[C@@H](Cc1ccccc1OC)C(=O)O; NMeAla(cPent) = CN[C@@H](CC1CCCC1)C(=O)O; NMeGly(cPent) = CN[C@H](C(=O)O)C1CCCC1; Phe(3-I) = N[C@@H](Cc1cccc(I)c1)C(=O)O; NMeY = CN[C@@H](Cc1ccc(O)cc1)C(=O)O; NMeCha = CN[C@@H](CC1CCCCC1)C(=O)O; NMeChg = CN[C@H](C(=O)O)C1CCCCC1; NMeD = CN[C@@H](CC(=O)O)C(=O)O; NMeL = CN[C@@H](CC(C)C)C(=O)O; NMeV = CN[C@H](C(=O)O)C(C)C; d(β3hA) = C[C@@H](N)CC(=O)O; NMeS = CN[C@@H](CO)C(=O)O; NMeA = CN[C@@H](C)C(=O)O; NMeAib = CNC(C)(C)C(=O)O; Nle = CCCC[C@H](N)C(=O)O; Piperidide = C1CCN(*)CC1; Ac5c = NC1(C(=O)O)CCCC1; Aze = O=C(O)[C@@H]1CCN1; Isopentyl = CC(C)CC*; Sar = CNCC(=O)O
Please assign no whenever IC50 is at or above 3 nM, and yes whenever it is below.

Quick check: does CC[C@H](C)[C@@H]1NC(=O)[C@H](CC(C)C)N(C)C(=O)C[C@@H](C(=O)N2CCS(=O)(=O)CC2)N(C)C(=O)[C@H](C2CCCCC2)N(C)C(=O)C2(CCCC2)NC(=O)[C@@H]2CCCN2C(=O)[C@H](CCc2ccc(C(F)(F)F)c(Cl)c2)NC(=O)CN(C)C(=O)[C@H](CC2CCCCC2)N(C)C(=O)CN(C)C(=O)CN(C)C1=O [Compound 1263] ([NMeL]I[Sar][Sar][NMeCha][Sar][hPhe(3-Cl-4-CF3)]P[Ac5c][NMeChg][NMeD]-{Thiomorpholino(1,1-dioxo)}; lactam N-11) have IC50 under 3 nM?
yes

Quick check: does CC[C@H](C)[C@@H]1NC(=O)[C@H](CC(C)C)N(C)C(=O)C[C@@H](C(=O)N2CCCCC2)N(C)C(=O)[C@H](C2CCCCC2)N(C)C(=O)C2(CCCC2)NC(=O)[C@@H]2CCCN2C(=O)[C@H](CCc2ccc(C(F)(F)F)c(Cl)c2)NC(=O)CN(C)C(=O)[C@H](CC2CCCC2)N(C)C(=O)CN(C)C(=O)CN(C)C1=O [Compound 1689] ([NMeL]I[Sar][Sar][NMeAla(cPent)][Sar][hPhe(3-Cl-4-CF3)]P[Ac5c][NMeChg][NMeD]-Piperidide; lactam N-11) have IC50 under 3 nM?
yes

Quick check: does CC[C@H](C)[C@@H]1NC(=O)[C@H](CC(C)C)N(C)C(=O)C[C@@H](C(=O)N2CCCCC2)N(C)C(=O)[C@H](C2CCCCC2)N(C)C(=O)C2(CCCC2)NC(=O)[C@@H]2C[C@@H](c3ccccc3)CN2C(=O)[C@H](CCc2ccc(C(F)(F)F)c(Cl)c2)NC(=O)CN(C)C(=O)[C@H](CC2CCCCC2)N(C)C(=O)[C@@H]2CCN2C(=O)CN(C)C1=O [Compound 147] ([NMeL]I[Sar][Aze][NMeCha][Sar][hPhe(3-Cl-4-CF3)][Pro(trans-4-Ph)][Ac5c][NMeChg][NMeD]-Piperidide; lactam N-11) have IC50 under 3 nM?
no

Quick check: does CCCC[C@@H]1NC(=O)[C@H](Cc2cc(Cl)cc(Cl)c2)NC(=O)CN(C)C(=O)[C@H](Cc2ccc(Cl)cc2)N(C)C(=O)CN(C)C(=O)CN(C)C(=O)[C@H]([C@@H](C)CC)NC(=O)[C@H](CC(C)C)N(C)C(=O)C[C@@H](C(=O)N2CCCCC2)N(C)C(=O)[C@H](CC(C)C)NC(=O)C(C)(C)N(C)C1=O [Compound 431] ([NMeL]I[Sar][Sar][NMePhe(4-Cl)][Sar][Phe(3,5-Cl2)][Nle][NMeAib]L[NMeD]-Piperidide; lactam N-11) have IC50 under 3 nM?
no

Quick check: does CC[C@H](C)[C@@H]1NC(=O)[C@H](CC(C)C)N(C)C(=O)C[C@@H](C(=O)N(C)C)N(C)C(=O)[C@H](C2CCCC2)N(C)C(=O)C2(CCCC2)NC(=O)[C@H](C)N(C)C(=O)[C@H](CCc2ccc(C(F)(F)F)c(Cl)c2)NC(=O)CN(C)C(=O)[C@H](CC2CCCCC2)N(C)C(=O)[C@@H]2CCN2C(=O)[C@H](C)N(C)C1=O [Compound 274] ([NMeL]I[NMeA][Aze][NMeCha][Sar][hPhe(3-Cl-4-CF3)][NMeA][Ac5c][NMeGly(cPent)][NMeD]-NMe2; lactam N-11) have IC50 under 3 nM?
yes

Quick check: does CC[C@H](C)[C@@H]1NC(=O)[C@H](COCCC(C)C)N(C)C(=O)C[C@@H](C(=O)N2CCCCC2)N(C)C(=O)[C@H](C2CCCCC2)N(C)C(=O)C2(CCCC2)NC(=O)[C@@H]2CCCN2C(=O)[C@H](CCc2ccc(C(F)(F)F)c(Cl)c2)NC(=O)CN(C)C(=O)[C@H](CC2CCCCC2)N(C)C(=O)CN(C)C(=O)CN(C)C1=O [Compound 1115] ([NMeS](Isopentyl)I[Sar][Sar][NMeCha][Sar][hPhe(3-Cl-4-CF3)]P[Ac5c][NMeChg][NMeD]-Piperidide; lactam N-11) have IC50 under 3 nM?
yes

Quick check: does CC[C@H](C)[C@@H]1NC(=O)[C@H](CC(C)C)N(C)C(=O)C[C@@H](C(=O)N2CCCCC2)N(C)C(=O)[C@H](C(C)C)N(C)C(=O)C2(CCCC2)NC(=O)[C@@H]2CCCN2C(=O)[C@H](CCc2ccc(C(F)(F)F)c(Cl)c2)NC(=O)CN(C)C(=O)[C@H](Cc2ccc(OC)cc2)N(C)C(=O)CN(C)C(=O)CN(C)C1=O [Compound 1588] ([NMeL]I[Sar][Sar][NMeY](Me)[Sar][hPhe(3-Cl-4-CF3)]P[Ac5c][NMeV][NMeD]-Piperidide; lactam N-11) have IC50 under 3 nM?
no

Quick check: does CCCC[C@@H]1NC(=O)[C@H](Cc2cccc(I)c2)NC(=O)CN(C)C(=O)[C@H](Cc2ccc(Cl)cc2)N(C)C(=O)CN(C)C(=O)CN(C)C(=O)[C@H]([C@@H](C)CC)NC(=O)[C@H](CC(C)C)N(C)C(=O)C[C@@H](C(=O)N2CCCCC2)N(C)C(=O)[C@H](CC(C)C)NC(=O)[C@H](Cc2ccccc2OC)N(C)C1=O [Compound 259] ([NMeL]I[Sar][Sar][NMePhe(4-Cl)][Sar][Phe(3-I)][Nle][NMePhe(2-OMe)]L[NMeD]-Piperidide; lactam N-11) have IC50 under 3 nM?
no

Quick check: does CC[C@H](C)[C@@H]1NC(=O)[C@H](C(C)C)N(C)C(=O)C[C@@H](C)NC(=O)[C@H](CC(C)C)N(C)C(=O)C2(CCCC2)NC(=O)[C@H](CC(C)C)N(C)C(=O)[C@H](CCc2ccc(C(F)(F)F)cc2)NC(=O)CN(C)C(=O)[C@H](Cc2ccc(Cl)cc2)N(C)C(=O)[C@@H]2CCN2C(=O)CN(C)C1=O [Compound 645] (cyclo([Ac5c][NMeL][d(β3hA)][NMeV]I[Sar][Aze][NMePhe(4-Cl)][Sar][hPhe(4-CF3)][NMeL])) have IC50 under 3 nM?
no
